# measured.target: VIM-1 (Pseudomonas aeruginosa)
# Construct: culture supernatant used unpurified
# experiment.summary: biochemical
# measurement.parameters: cleavage of nitrocefin (200 uM) by VIM-1 supernatant
Exercise: for every item that follows, state its recorded IC50.

I would be grateful if you could share the reported IC50 for "COc1ccc2c(c1C(=O)O)OB(O)[C@@H](Sc1nnc(SCC(=N)N)s1)C2" .
< 1000 nM

I would be grateful if you could share the reported IC50 for "Cc1ccc2c(c1C(=O)O)OB(O)[C@@H](Sc1nnc(N)s1)C2" .
≥ 1000 nM

I would be grateful if you could share the reported IC50 for "NCc1cnc(S[C@H]2Cc3ccc(F)c(C(=O)O)c3OB2O)s1" .
< 1000 nM

I would be grateful if you could share the reported IC50 for "COc1ccc2c(c1C(=O)O)OB(O)[C@@H](Sc1nnc(NC(CN)CN)s1)C2" .
< 1000 nM

I would be grateful if you could share the reported IC50 for "COc1ccc2c(c1C(=O)O)OB(O)[C@@H](Sc1cncs1)C2" .
< 1000 nM

----------
# measured.target: NDM-1 (Klebsiella pneumoniae, UniProt C7C422)
# Sequence (C7C422 29-270, looked up, species assumed): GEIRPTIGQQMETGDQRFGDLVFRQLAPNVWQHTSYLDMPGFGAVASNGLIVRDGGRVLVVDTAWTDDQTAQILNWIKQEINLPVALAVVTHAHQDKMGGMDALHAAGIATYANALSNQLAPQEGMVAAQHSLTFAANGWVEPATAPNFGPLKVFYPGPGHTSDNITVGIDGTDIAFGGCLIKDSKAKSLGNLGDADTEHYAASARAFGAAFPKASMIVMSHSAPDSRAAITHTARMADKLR
# experiment.summary: biochemical
# measurement.parameters: cleavage of imipenem (100 uM) by NDM-1; read-out: Ki, Imipenem
pKi: −log10 of the molar value.
Exercise: for every item that follows, state its recorded pKi.

I would be grateful if you could share the reported pKi for "NC(=O)c1cnc(S[C@H]2Cc3ccc(F)c(C(=O)O)c3OB2O)s1" .
< 7.00

I would be grateful if you could share the reported pKi for "Nc1nnc(S[C@H]2Cc3ccc(Cl)c(C(=O)O)c3OB2O)s1" .
7.00 to 8.00

I would be grateful if you could share the reported pKi for "COc1ccc2c(c1C(=O)O)OB(O)[C@@H](Sc1nncn1C)C2" .
> 8.00

I would be grateful if you could share the reported pKi for "CCOc1ccc2c(c1C(=O)O)OB(O)[C@@H](Sc1nnc(NC3CNC3)s1)C2" .
< 7.00

I would be grateful if you could share the reported pKi for "O=C(O)c1c(OCC2CC2)ccc2c1OB(O)[C@@H](Sc1nncs1)C2" .
7.00 to 8.00

I would be grateful if you could share the reported pKi for "CSc1ccc2c(c1C(=O)O)OB(O)[C@@H](Sc1nncn1C)C2" .
7.00 to 8.00

I would be grateful if you could share the reported pKi for "Cc1ccc2c(c1C(=O)O)OB(O)[C@@H](Sc1nnc(N)s1)C2" .
< 7.00

I would be grateful if you could share the reported pKi for "Cn1ncc(C(N)=O)c1S[C@H]1Cc2ccc(F)c(C(=O)O)c2OB1O" .
< 7.00

I would be grateful if you could share the reported pKi for "NC(=O)CS[C@H]1Cc2ccc(F)c(C(=O)O)c2OB1O" .
< 7.00

I would be grateful if you could share the reported pKi for "O=C(O)c1c(OCc2nncs2)ccc2c1OB(O)[C@@H](Sc1nncs1)C2" .
< 7.00

I would be grateful if you could share the reported pKi for "CC(=O)Nc1nnc(S[C@H]2Cc3cccc(C(=O)O)c3OB2O)s1" .
7.00 to 8.00

I would be grateful if you could share the reported pKi for "Nn1cnnc1S[C@H]1Cc2ccc(F)c(C(=O)O)c2OB1O" .
> 8.00

I would be grateful if you could share the reported pKi for "O=C(O)c1cccc2c1OB(O)[C@@H](Sc1ccccc1)C2" .
> 8.00

I would be grateful if you could share the reported pKi for "Nn1cnnc1S[C@H]1Cc2cccc(C(=O)O)c2OB1O" .
> 8.00

I would be grateful if you could share the reported pKi for "COc1ccc2c(c1C(=O)O)OB(O)[C@@H](Sc1nnc(SCC(=N)N)s1)C2" .
> 8.00

I would be grateful if you could share the reported pKi for "NC(=O)COc1ccc2c(c1C(=O)O)OB(O)[C@@H](Sc1nnc(N)s1)C2" .
< 7.00

I would be grateful if you could share the reported pKi for "CS[C@H]1Cc2cccc(C(=O)O)c2OB1O" .
> 8.00

I would be grateful if you could share the reported pKi for C[S+]([O-])c1ccc2c(c1C(=O)O)OB(O)[C@@H](Sc1nnc(N)s1)C2 (stereo partly drawn) .
7.00 to 8.00

I would be grateful if you could share the reported pKi for "N#CCOc1ccc2c(c1C(=O)O)OB(O)[C@@H](Sc1nncs1)C2" .
< 7.00

I would be grateful if you could share the reported pKi for "CS(=O)(=O)Nc1ccc2c(c1C(=O)O)OB(O)[C@@H](Sc1nnc(N)s1)C2" .
> 8.00

I would be grateful if you could share the reported pKi for "COc1ccc2c(c1C(=O)O)OB(O)[C@@H](Sc1nnc(N(CCN)CCN)s1)C2" .
> 8.00

I would be grateful if you could share the reported pKi for "COc1ccc2c(c1C(=O)O)OB(O)[C@@H](Sc1nncn1N)C2" .
> 8.00

I would be grateful if you could share the reported pKi for "COc1ccc2c(c1C(=O)O)OB(O)[C@@H](Sc1nnc(NCCCN)s1)C2" .
> 8.00

I would be grateful if you could share the reported pKi for "N#CCS[C@H]1Cc2ccc(F)c(C(=O)O)c2OB1O" .
< 7.00
